FYI, the data here is from paper PMC12040169.

Assay: in vitro
Details: human, hela cells, % viability
recorded-metric: viability at 28.5 h, 10 µM (%)

1) CC1CN(C(=O)c2ccccc2-c2ccccc2C(=O)O)CC(C)O1 (stereo not shown)    87.7
2) CN(CC(=O)O)C(=O)c1ccc(Oc2cccc(Br)c2)nc1    90.7
3) COc1ncc(-c2nccnc2Oc2cccc(NC(C)=O)c2)c(OC)n1    89.6
4) CC(C)(C)c1ccc(S(=O)(=O)N2CCCC[C@H]2COC(=O)CCC(=O)O)cc1    117
5) O=C(c1cc(F)cc(F)c1)N1CCC(c2n[nH]c3ncccc23)CC1    87.9
6) O=C1CSC(c2cccc(Cl)c2Cl)N1C1CCCCC1 (stereo not shown)    96.7
7) O=C(O)CCc1nc2nc(-c3ccco3)cc(C(F)(F)F)n2n1    86
8) O=C(c1ccc(F)cc1)N1C2CCC1CC(O)(c1ccccc1F)C2 (stereo not shown)    102
9) COc1ccc(-c2cc(C(=O)NCCc3ccc(N)cc3)cnc2-c2ccc(Cl)cc2)cc1    91.6
10) c1csc(CNc2nccnc2-c2cccs2)c1    92.6

----------
Each record here notes measured viability at 28.5 h, 10 µM.
Test: in vitro
Conditions: human, hela cells, % viability
recorded-metric: viability at 28.5 h, 10 µM

1. O=C(CNC1CCN(Cc2ccccc2)CC1)Nc1ccc(Cl)cc1C(=O)c1ccccc1Cl [CBK074770]    107%
2. c1cnc(NCc2cc3n(n2)CCN(CC2CCCCO2)C3)cn1 (stereo not shown) [CBK306891]    96.4%
3. COc1cc(CCN2CCC(c3nc(-c4ccccc4)c4ccccn34)CC2)cc(OC)c1OC [CBK035278]    91%
4. CCOC(=O)N(C)c1c(CC)nc2ccc(C(=O)N(C)CCCN(C)C)cn12 [CBK146478]    107%
5. COC(=O)[C@H]1CN(C(=O)c2scnc2C)C[C@@H]1c1ccc(F)cc1 [CBK283520]    104%
6. CCCSc1nnc(-c2c(Cl)c(CC)nn2C)s1 [CBK026135]    104%
7. CC(=O)Nc1ccc(-c2nc3cnccc3o2)cc1 [CBK287975]    85.9%
8. CC(Nc1cccc2ccccc12)C(=O)N/N=C/c1ccc([N+](=O)[O-])cc1 (stereo not shown) [CBK262676]    84.2%
9. O=C1c2ccc(Oc3ccc(Oc4ccc5c(c4)C(=O)N(c4cccnc4)C5=O)cc3)cc2C(=O)N1c1cccnc1 [CBK262195]    95.7%
10. CC(C)CC1(C(CN2C(=O)c3ccccc3C2=O)C(=O)NO)CCN(CCc2ccccc2)C1=O (stereo not shown) [CBK013029]    103%
11. O=C(CNC(=O)C1CCCCC1)NNC(=O)c1ccccc1Br [CBK267828]    102%
12. CC(=O)Nc1ccc(S(=O)(=O)N(c2ccc(C(C)(C)C)cc2)C2CCNCC2)cc1 [CBK165062T]    90.4%
13. Cc1nc(CCNCc2c(C(C)C)nn(C)c2N(C)C)cs1 [CBK304002]    98.8%
14. Cc1cc2nc3c(nc2cc1C)CCNCC3 [CBK012302]    91.1%
15. CCOC(=O)N1CCN(Cc2ccc(O)c(OC)c2)CC1 [CBK261873]    98.5%
16. O=C(NC1CCCC1)c1ccc2c(=O)[nH]cnc2c1 [CBK287990]    90.1%
17. Oc1cccc(-c2nccnc2N2CCN(c3ccncc3)CC2)c1 [CBK037079]    113%
18. CCOC(=O)CC1=C(C(=O)OCC)C(c2ccccc2C(F)(F)F)C(C#N)=C(N)O1 (stereo not shown) [CBK262710]    105%
19. Cc1nc2n(CC#N)c3ccccc3n2n1 [CBK062670]    99.7%
